target: human c-fms, full length, on cells (human, UniProt P07333 20-972); assay: cell-based or functional assay
Sequence (P07333 20-972): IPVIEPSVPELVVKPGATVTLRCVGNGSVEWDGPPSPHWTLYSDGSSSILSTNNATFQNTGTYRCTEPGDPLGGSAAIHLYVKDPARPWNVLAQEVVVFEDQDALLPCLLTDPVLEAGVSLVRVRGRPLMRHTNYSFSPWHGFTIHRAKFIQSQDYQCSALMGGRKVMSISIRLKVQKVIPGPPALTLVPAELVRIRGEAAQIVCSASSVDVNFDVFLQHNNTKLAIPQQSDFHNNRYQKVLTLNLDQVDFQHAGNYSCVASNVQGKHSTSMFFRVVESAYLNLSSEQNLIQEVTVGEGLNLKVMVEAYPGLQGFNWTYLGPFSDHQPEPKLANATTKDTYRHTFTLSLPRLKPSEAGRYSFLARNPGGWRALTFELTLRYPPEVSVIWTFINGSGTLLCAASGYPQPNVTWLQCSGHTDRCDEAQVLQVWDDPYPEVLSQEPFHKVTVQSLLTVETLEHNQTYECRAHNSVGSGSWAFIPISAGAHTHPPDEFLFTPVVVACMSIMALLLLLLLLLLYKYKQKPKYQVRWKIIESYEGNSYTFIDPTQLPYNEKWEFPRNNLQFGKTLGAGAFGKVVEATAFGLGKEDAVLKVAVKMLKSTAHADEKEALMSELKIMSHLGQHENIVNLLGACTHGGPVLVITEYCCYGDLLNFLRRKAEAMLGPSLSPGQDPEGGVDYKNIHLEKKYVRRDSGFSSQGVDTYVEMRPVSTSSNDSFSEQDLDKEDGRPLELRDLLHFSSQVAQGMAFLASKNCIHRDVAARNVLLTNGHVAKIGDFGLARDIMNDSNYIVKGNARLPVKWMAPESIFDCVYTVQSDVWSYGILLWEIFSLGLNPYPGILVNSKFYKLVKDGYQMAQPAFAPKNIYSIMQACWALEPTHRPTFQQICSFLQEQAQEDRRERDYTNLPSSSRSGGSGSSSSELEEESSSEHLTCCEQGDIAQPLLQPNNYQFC
outcomeMeasure: Human CD14+ monocytes bioassay IC50 (ng/mL)
# unit: ng/mL | format: bare number

The following binders have reported results that may help.
anti-c-fms hybridoma antibody 2.360 (antibody, IgG2, V domains shown, Hybridoma IgG2 (cohort 2)) VH: QVQLVQSGAEVKKPGASVKVSCKVSGYTLTELSMHWVRQAPGKGLEWMGGFDPEDGETIYAQKFQGRVTMTEDTSTDTVYMELSSLRSEDTAVYYCATGVMITFGGVIVGHSYYGMDVWGQGTTVTVSS VL: DIQMTQSPSSLSASVGDRVTITCRASQGINNYLAWYQQKPGKVPQLLIYVASTLQSGVPSRFSGSGSGTDFTLTISSLQPEDVATYYCQKYNSGPFTFGPGTKVDIK: 10
anti-c-fms hybridoma antibody 1.64 (antibody, IgG1, V domains shown, Hybridoma IgG1 (cohort 1); also called 1.64.1; 1.64.2) VH: EVQLVESGGGLVQPGGSLRLSCAASGFTFSSYDMHWVRQATGKGLEWVSGIGTAGDTYYPGSVKGRFNISRENAKNSLYLQMNSLRAGDTAVYYCAREGSWYGFDYWGQGTLVTVSS VL: EIVLTQSPGTLSLSPGERATLSCRASQSVSSGYLAYLAWYQQKPGQAPRLLIYGASSTATGIPDRFSGSGSGTDFTLTISRLEPEDFAVYYCQQYGSSPITFGQGTRLEIK: 2
anti-c-fms hybridoma antibody 2.475 (antibody, IgG2, V domains shown, Hybridoma IgG2 (cohort 2); also called 2.475.2) VH: QVQLVESGGGVVQPGRSLRLSCAASGFTFISYGMHWVRQAPGKGLEWVAVIWYDGSNKYYADSVKGRFTISRDNSKNTLYLQMNSLRAEDTAVYYCADSSGDYYGMDVWGQGTTVTVSS VL: DIQMIQSPSSLSASVGDRVTITCQASHDISNYLNWYQQKPGKAPKFLISDASNLETGVPSRFSGSGSGTDFTFTISSLQPEDIATYYCQQYDNLPLTFGGGTKVEIK: 10
anti-c-fms hybridoma antibody 2.508 (antibody, IgG2, V domains shown, Hybridoma IgG2 (cohort 2); also called 2.508.1; 2.508.2) VH: QVQLVQSGAEVKKPGASVKVSCKVSGYTLTELSMHWVRQAPGKGLEWMGGFDPEDGETIYAQKFQGRVTMTEDTSTDTAYMELSSLRSEDTAVYYCATAGLEIRWFDPWGQGTLVTVSS VL: DIVMTQSPLSLPVTPGEPASISCRSSQSLLHSNGYNYLDWYLQKPGQSPQFLIYLGSIRASGVPDRFSGSGSGTDFALTISRVEAEDVGVYYCMQALQTPRTFGQGTKVEIK: 20

## Input What value of Human CD14+ monocytes bioassay IC50 has been reported for the following binder? anti-c-fms hybridoma antibody 2.534 (antibody, IgG2, V domains shown, Hybridoma IgG2 (cohort 2); also called 2.534.1; 2.534.2) VH: QVQLQESGPGLVKPSQTLSLTCTVSGGSISSGGYYWSWIRQHPGKGLEWIGYISYSGDTYYNPSLKSRLTISVDTSKHQFSLRLSSVTSADTAVYYCASLDLYGDYFDYWGQGTLVTVSS VL: EIVLTQSPDFQSVTPKEKVTITCRASQYIGSSLHWYQQTPDQSPKLLINYVSQSFSGVPSRFSGSGSGTDFTLTINSLEAEDAATYYCHQSSSLPFTFGPGTKVDIK
## Output 7

Source listed as patent US20090155164A1.
